target-system: CLK2 (Homo sapiens (Human), UniProt P49760)
Sequence (P49760 whole entry): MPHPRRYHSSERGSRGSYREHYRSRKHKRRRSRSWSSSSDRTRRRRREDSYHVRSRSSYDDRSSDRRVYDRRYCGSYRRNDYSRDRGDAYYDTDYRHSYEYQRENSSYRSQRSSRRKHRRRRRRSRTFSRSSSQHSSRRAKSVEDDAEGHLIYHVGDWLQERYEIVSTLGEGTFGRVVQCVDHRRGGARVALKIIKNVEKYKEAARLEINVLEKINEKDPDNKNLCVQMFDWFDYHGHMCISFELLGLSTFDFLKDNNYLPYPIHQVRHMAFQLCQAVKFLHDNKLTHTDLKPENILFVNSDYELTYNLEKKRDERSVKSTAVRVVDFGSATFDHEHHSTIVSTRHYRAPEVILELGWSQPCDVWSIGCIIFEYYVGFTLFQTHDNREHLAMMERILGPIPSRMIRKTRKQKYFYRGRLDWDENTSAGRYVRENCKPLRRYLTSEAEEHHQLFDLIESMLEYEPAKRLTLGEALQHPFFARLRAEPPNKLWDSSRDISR
assay-remarks: biochemical
run-conditions: read-out: CLK2 (% Inh.), % inhibition at 3 μM
measurement-label: inhibition at 3 µM (%)

[[record]]
compound = "CNC(=O)c1ccc(Nc2nc(OC3CCCC3)c3c(-c4ccc(O)cc4)c[nH]c3n2)c(OC)c1 [Compound 3]"
target_system = "CLK2 (Homo sapiens (Human), UniProt P49760)"
measured = 104

[[record]]
compound = "CNC(=O)c1ccc(Nc2nc(OC3CCOCC3)c3c(-c4ccc(O)cc4)c[nH]c3n2)c(OC)c1 [Compound 17]"
target_system = "CLK2 (Homo sapiens (Human), UniProt P49760)"
measured = 98

[[record]]
compound = "CNC(=O)c1ccc(Nc2nc(OC3CCOCC3)c3c(-c4ccn(C)n4)c[nH]c3n2)c(OC)c1 [Compound 163]"
target_system = "CLK2 (Homo sapiens (Human), UniProt P49760)"
measured = 102

[[record]]
compound = "CNC(=O)c1ccc(Nc2nc(OC3CCC3)c3c(-c4ccc5nc(C)oc5c4)c[nH]c3n2)c(OC)c1 [Compound 198]"
target_system = "CLK2 (Homo sapiens (Human), UniProt P49760)"
measured = 100

[[record]]
compound = "CNC(=O)c1ccc(Nc2nc(OC3CCOCC3)c3c(-c4cnn(C)c4)c[nH]c3n2)c(OC)c1 [Compound 184]"
target_system = "CLK2 (Homo sapiens (Human), UniProt P49760)"
measured = 98

[[record]]
compound = "CNC(=O)c1ccc(Nc2nc(O[C@H]3CCOC3)c3c(-c4ccc5nc(C)oc5c4)c[nH]c3n2)c(C)c1 [Compound 133]"
target_system = "CLK2 (Homo sapiens (Human), UniProt P49760)"
measured = 101

[[record]]
compound = "CCOc1ccc(-c2c[nH]c3nc(Nc4ccc(C(=O)NC)cc4C)nc(O[C@H]4CCOC4)c23)cn1 [Compound 162]"
target_system = "CLK2 (Homo sapiens (Human), UniProt P49760)"
measured = 106

[[record]]
compound = "CNC(=O)c1ccc(Nc2nc(OC(C)C)c3c(-c4ccc5nc(C)oc5c4)c[nH]c3n2)c(Cl)c1 [Compound 426]"
target_system = "CLK2 (Homo sapiens (Human), UniProt P49760)"
measured = 101

[[record]]
compound = "CNC(=O)c1ccc(-c2c[nH]c3nc(Nc4ccc(C(=O)NC)cc4Cl)nc(OC4CCOCC4)c23)cc1 [Compound 421]"
target_system = "CLK2 (Homo sapiens (Human), UniProt P49760)"
measured = 101

[[record]]
compound = "CNC(=O)c1ccc(Nc2nc(O[C@H]3CCOC3)c3c(-c4ccc5nc(C)oc5c4)c[nH]c3n2)c(OC)c1 [Compound 169]"
target_system = "CLK2 (Homo sapiens (Human), UniProt P49760)"
measured = 105

[[record]]
compound = "CNC(=O)c1ccc(Nc2nc(NC(C)C)c3c(-c4ccc5nc(C)oc5c4)c[nH]c3n2)c(OC)c1 [Compound 202]"
target_system = "CLK2 (Homo sapiens (Human), UniProt P49760)"
measured = 99

[[record]]
compound = "COc1cc(C(=O)N(C)C)ccc1Nc1nc(OC)c2c(-c3ccncc3)c[nH]c2n1 [Compound 392]"
target_system = "CLK2 (Homo sapiens (Human), UniProt P49760)"
measured = 99

[[record]]
compound = "CC[C@H](C)Oc1nc(Nc2ccc(C(=O)NC)cc2OC)nc2[nH]cc(-c3ccc4nc(C)oc4c3)c12 [Compound 204]"
target_system = "CLK2 (Homo sapiens (Human), UniProt P49760)"
measured = 99

[[record]]
compound = "CNC(=O)c1ccc(Nc2nc(OC3CCOCC3)c3c(-c4ccc(-c5nc(C)c[nH]5)cc4)c[nH]c3n2)c(OC)c1 [Compound 207]"
target_system = "CLK2 (Homo sapiens (Human), UniProt P49760)"
measured = 99

[[record]]
compound = "CC[C@@H](C)Oc1nc(Nc2ccc(C(=O)NC)cc2OC)nc2[nH]cc(-c3ccc4nc(C)oc4c3)c12 [Compound 203]"
target_system = "CLK2 (Homo sapiens (Human), UniProt P49760)"
measured = 99

[[record]]
compound = "Cc1nc2ccc(-c3c[nH]c4nc(Nc5cn(C)nc5C)nc(OC5CCCC5)c34)cc2o1 [Compound 307]"
target_system = "CLK2 (Homo sapiens (Human), UniProt P49760)"
measured = 103

[[record]]
compound = "CNC(=O)c1ccc(Nc2nc(OC)c3c(-c4ccc(OC)nc4)c[nH]c3n2)c(OC)c1 [Compound 118]"
target_system = "CLK2 (Homo sapiens (Human), UniProt P49760)"
measured = 98

[[record]]
compound = "COc1cc(C(=O)NCCO)ccc1Nc1nc(OC2CCOCC2)c2c(-c3ccc4nc(C)oc4c3)c[nH]c2n1 [Compound 213]"
target_system = "CLK2 (Homo sapiens (Human), UniProt P49760)"
measured = 100

[[record]]
compound = "COc1cc(C(=O)NCCO)ccc1Nc1nc(OC2CC2)c2c(-c3ccc4nc(C)oc4c3)c[nH]c2n1 [Compound 216]"
target_system = "CLK2 (Homo sapiens (Human), UniProt P49760)"
measured = 99

[[record]]
compound = "Cc1cc(C(=O)N(C)C)ccc1Nc1nc(OC2CCOCC2)c2c(-c3ccnc(C#N)c3)c[nH]c2n1 [Compound 140]"
target_system = "CLK2 (Homo sapiens (Human), UniProt P49760)"
measured = 103

[[record]]
compound = "COc1nc(Nc2ccc(C(=O)N(C)C)cc2Cl)nc2[nH]cc(-c3ccncc3)c12 [Compound 157]"
target_system = "CLK2 (Homo sapiens (Human), UniProt P49760)"
measured = 105

[[record]]
compound = "CNC(=O)c1ccc(Nc2nc(OC3CCOCC3)c3c(-c4ccc(-c5nc(C)c(C)[nH]5)cc4)c[nH]c3n2)c(OC)c1 [Compound 197]"
target_system = "CLK2 (Homo sapiens (Human), UniProt P49760)"
measured = 103

[[record]]
compound = "CNC(=O)c1ccc(Nc2nc(OC(C)C)c3c(-c4ccnc(OC)c4)c[nH]c3n2)c(OC)c1 [Compound 185]"
target_system = "CLK2 (Homo sapiens (Human), UniProt P49760)"
measured = 106

[[record]]
compound = "CNC(=O)c1ccc(Nc2nc(OC3CCC(C)(O)CC3)c3c(-c4ccc5nc(C)oc5c4)c[nH]c3n2)c(OC)c1 (centres unmarked) [Compound 205]"
target_system = "CLK2 (Homo sapiens (Human), UniProt P49760)"
measured = 103

[[record]]
compound = "CNC(=O)c1ccc(Nc2nc(OC3CCC(C)(O)CC3)c3c(-c4ccc5nc(C)oc5c4)c[nH]c3n2)c(C)c1 (centres unmarked) [Compound 150]"
target_system = "CLK2 (Homo sapiens (Human), UniProt P49760)"
measured = 111

[[record]]
compound = "CNC(=O)c1ccc(Nc2nc(OC3CCCC3)c3c(-c4cccnc4)c[nH]c3n2)c(OC)c1 [Compound 58]"
target_system = "CLK2 (Homo sapiens (Human), UniProt P49760)"
measured = 103

[[record]]
compound = "CNC(=O)c1ccc(-c2c[nH]c3nc(Nc4cn(C)nc4C)nc(OC4CCC4)c23)cc1 [Compound 340]"
target_system = "CLK2 (Homo sapiens (Human), UniProt P49760)"
measured = 99

[[record]]
compound = "COc1cc(C(=O)NC2COC2)ccc1Nc1nc(OC)c2c(-c3cc(C)nc(C)c3)c[nH]c2n1 [Compound 384]"
target_system = "CLK2 (Homo sapiens (Human), UniProt P49760)"
measured = 88

[[record]]
compound = "CNC(=O)c1ccc(Nc2nc(NC3CCCC3)c3c(-c4ccc(O)cc4)c[nH]c3n2)c(OC)c1 [Compound 16]"
target_system = "CLK2 (Homo sapiens (Human), UniProt P49760)"
measured = 90

